Task for the reader: assign each of the following compounds its reported TGI.
- Tested on: COLO 205 colon
- assayInfo: NCI tumour cell line growth inhibition, 48 h

Solved cases below.
{"columns": ["compound", "TGI"],
 "data": [
  ["CCCCC(=O)/C=c1/cc(C)[nH]c2cccc3cnn1c32", "> 100 µM"],
  ["C=C(C)C1CC[C@@](C)(O)[C@H](C#N)C1 (stereo partly drawn)", "> 100 µM"],
  ["C/C=C/C(=O)Oc1cccc2cccnc12", "35.9 µM"]
]}

Can you give me TGI for all of these, one by one?
1. CC[C@@H](C)/C=C(C)/C=C/C(=O)c1c(O)c(-c2ccc(OC(=O)[C@@]34CC[C@@](C)(C(=O)O3)C4(C)C)cc2)cn(O)c1=O
2. C=C1CC[C@@H]2C13[C@@H]1[C@H](CC(=O)[C@@]23C)C1(C)C (stereo partly drawn)
3. Cc1cccc(NC(=O)C(=O)C(C2OC(=O)c3ccccc32)[N+](=O)[O-])c1C (stereo not drawn)
4. Cn1c(=O)c2ccccc2[n+]2c(-c3cccc([N+](=O)[O-])c3)csc12
5. NS(=O)(=O)c1ccc(N=Nc2ccc[nH]c2=O)cc1

(A)
1: > 50 µM; 2: > 100 µM; 3: 29.1 µM; 4: > 100 µM; 5: > 100 µM

---

Task for the reader: assign each of the following compounds its reported TGI.
- System: SNB-19 CNS
- assayInfo: NCI tumour cell line growth inhibition, 48 h

Solved cases below.
{"columns": ["compound", "TGI"],
 "data": [
  ["CC(O)CNC(=O)Nc1c(C(F)(F)F)cc(-c2ccccc2)[nH]c1=O (stereo not drawn)", "> 100 µM"],
  ["O=C(O)CCC(c1ccccc1)(c1ccccc1)c1ccccc1", "> 100 µM"],
  ["COC(=O)[C@H](Cc1cn(C)cn1)NC(=O)[C@H](CC(=O)OCc1ccccc1)NC(=O)Nc1cc(C(F)(F)F)cc(C(F)(F)F)c1", "28.5 µM"],
  ["C[C@]12CC[C@H](O[C@@H]3O[C@H](CO[C@@H]4O[C@H](CO)[C@@H](O)[C@H](O)[C@H]4O)[C@@H](O)[C@H](O)[C@H]3O)C[C@@H]1CC[C@@H]1[C@@H]2CC[C@]2(C)[C@@H](C3=CC(=O)OC3)CC[C@]12O", "> 100 µM"],
  ["Cc1cccc(C)c1NC(=O)CCC(=O)NC(N)=NC#N", "> 100 µM"],
  ["CCC12C=CCN(CCc3c([nH]c4ccccc34)/C=C\\1)C2 (stereo not drawn)", "> 100 µM"],
  ["COc1cc(C(=O)/C=C/c2cc(-c3ccc4c(c3)OCO4)n[nH]2)cc(OC)c1OC", "11.7 µM"]
]}

(Q) Entry C/C=C/c1cc2c(cc1O)CC[C@@H]1[C@@H]2CC[C@]2(C)[C@@H](O)CC[C@@H]12 : reported TGI = ?
(A) 14.9 µM

---

- System: HCC-2998 colon
- assayInfo: NCI tumour cell line growth inhibition, 48 h
quantityMeasured: TGI (µM)
Give bare numbers, in µM.

{"columns": ["structureSmiles", "unit", "TGI"],
 "data": [
  ["Nc1[nH]nc2nc(-c3cc(Cl)ccc3Cl)cc(-c3ccc(F)cc3)c12", "µM", 36.1],
  ["O=C(Nc1nc(-c2ccc(Cl)cc2)cs1)c1cc(O)c(O)c(O)c1", "µM", 2080]
]}

(Q) For HCC-2998 colon, provide TGI of CCc1nc(C)cn1C(=O)OCc1nc2nc(Cl)nc(N3CCOCC3)c2[nH]1 please.
(A) 3.44

---

- Test system: MCF7 breast
- assayInfo: NCI tumour cell line growth inhibition, 48 h; in the data active = GI50 below about 0.43 µM; inactive = the rest
Respond only with the outcome that fits, drawn from True (active), False (inactive)

{"columns": ["compound", "group"],
 "data": [
  ["Nc1[nH]nc2nc(-c3cc(Cl)ccc3Cl)cc(-c3ccc(F)cc3)c12", "False"],
  ["Cc1ccc(N)cc1[As]=[As]c1cc(N)ccc1C (centres undefined)", "False"],
  ["O=C(/C=C/c1ccccc1)c1cccc2ccccc12", "False"],
  ["O=C1/C(=C\\c2ccc(F)cc2)CN(C(=O)c2ccccc2F)C/C1=C\\c1ccc(F)cc1", "False"]
]}

(Q) What classification did COc1cccc2c1C(=O)c1c(O)c3c(c(O)c1C2=O)C[C@@](O)(/C(CO)=N/NC(=O)CCCCCN1C(=O)C=CC1=O)C[C@@H]3O[C@H]1C[C@H](N)[C@H](O)[C@H](C)O1 end up with in this test?
(A) True

(Q) What classification did O=C(Nc1nc(-c2ccc(Cl)cc2)cs1)c1cc(O)c(O)c(O)c1 end up with in this test?
(A) False

(Q) What classification did C=CCn1c2ccccc2c2c3c(c4c5ccccc5n(CC=C)c4c21)C(=O)N(O)C3=O end up with in this test?
(A) False

(Q) What classification did COC(=O)[C@H](Cc1cn(C)cn1)NC(=O)[C@H](CC(=O)OCc1ccccc1)NC(=O)Nc1cc(C(F)(F)F)cc(C(F)(F)F)c1 end up with in this test?
(A) False

(Q) What classification did CN(C)c1ccc(/C=C(\C#N)c2cc3ccccc3[nH]2)cc1 end up with in this test?
(A) True

---

- System: SNB-19 CNS
- assayInfo: NCI tumour cell line growth inhibition, 48 h
quantityMeasured: TGI (µM)
Numbers only, in µM.

{"columns": ["structureSmiles", "TGI / µM"],
 "data": [
  ["C=C1C(=O)O[C@H]2[C@H]1CC/C(COC(=O)c1cccnc1N)=C\\CC[C@@]1(C)O[C@@H]21", 28.5]
]}

Then this compound:
(Q) Entry CNC(=O)ON(C(C)=O)C(=O)NC : reported TGI = ?
(A) 359

---

Task for the reader: assign each of the following compounds its reported TGI.
- Tested on: HT29 colon
- assayInfo: NCI tumour cell line growth inhibition, 48 h
Give bare numbers, in µM.

{"columns": ["compound", "systemUnderTest", "unit", "TGI"],
 "data": [
  ["CC(C)c1oc(=O)cc2c1C(O)C1OC(=O)C3(C)C(O)C4OC4C2(C)C13 (configuration not stated)", "HT29 colon", "µM", 11.1],
  ["CN(C)NC1=C([N+](=O)[O-])C=NN(c2ccccc2)C1", "HT29 colon", "µM", 3.66],
  ["COc1cccc(Nc2ncnc3cc(NC(=O)CCl)ccc23)c1", "HT29 colon", "µM", 1.85],
  ["Cc1c(C(=O)c2ccccc2)[n+](=O)c2cc(Cl)c(Cl)cc2n1[O-]", "HT29 colon", "µM", 28.7],
  ["Oc1ccc2c(=S)cc(-c3ccc(Br)cc3)oc2c1O", "HT29 colon", "µM", 25.9]
]}

Can you give me TGI for all of these, one by one?
1. C=C1c2nc3ccccc3n2C=C(c2cccc(Cl)c2)N1Cc1ccc(OC)cc1
2. Cc1ccc(N2C(=O)C3c4[nH]c5ccc(C)cc5c4C4CCC(C(C)(C)C)CC4C3C2=O)cc1 (configuration not stated)

(A)
[53.2, 75.5]

Can you give me TGI for all of these, one by one?
1. NCCCNc1nc2ccccc2c2c(=O)c3cc(F)ccc3sc12
2. COc1cc(C(=O)/C=C/c2cc(-c3ccc4c(c3)OCO4)n[nH]2)cc(OC)c1OC

(A)
[3.14, 6.53]

---

- Test system: MCF7 breast
- assayInfo: NCI tumour cell line growth inhibition, 48 h
quantityMeasured: TGI

{"columns": ["compound", "systemUnderTest", "TGI"],
 "data": [
  ["O=C(NN1C(=O)CS(=O)(=O)C1c1ccc(Cl)c(Cl)c1)c1ccncc1 (centres undefined)", "MCF7 breast", "> 100 µM"],
  ["CCCCN=NNc1cn(C2OC(CO)C(O)C2O)c(=O)[nH]c1=O (centres undefined)", "MCF7 breast", "> 100 µM"],
  ["CC(=O)Nc1cc(Cl)cc(Cl)c1O", "MCF7 breast", "> 100 µM"],
  ["CC(=O)NS(=O)(=O)c1ccc(NCc2cccc3c(=O)c4ccc(Cl)cc4oc23)cc1", "MCF7 breast", "> 100 µM"],
  ["CCN(CC)CCNc1ccc2ncn3c4ccc(OC)cc4c(=O)c1c23", "MCF7 breast", "> 100 µM"]
]}

Can you give me TGI for all of these, one by one?
1. CC1(c2ccccc2)O[C@@H]2C[C@H]3[C@@H]4CCC5=CC(=O)C=C[C@]5(C)[C@@]4(F)[C@@H](O)C[C@]3(C)[C@]2(C(=O)CO)O1 (some centres undefined)
2. C=C1CN=C(Nc2ccc(Cl)cc2)S1
3. Cc1nc2sc(C(=O)Nc3cccc(Br)c3C)c(N)c2cc1C(O)c1ccccc1 (centres undefined)

(A)
1. 29.9 µM
2. > 100 µM
3. 13.1 µM

(Q) Entry CC1(C)CC[C@]2(C(=O)O)CC[C@]3(C)C(=CCC4=C5C[C@H](O)[C@H](O)[C@@](C)(CO)[C@@]5(C)CC[C@]43C)[C@@H]2C1 : reported TGI = ?
(A) > 100 µM
